// values below are reported MIC
test system: Streptococcus pneumoniae; assay: Antibacterial activity against Streptococcus pneumoniae 31002 by CLSI agar microdilution method; assay type: functional
Write the value in µg/mL as a bare number.

compound_structure_string	MIC, µg/mL
CCCCCCCCN[C@@]1(C)C[C@H](O[C@H]2[C@H](Oc3c4cc5cc3Oc3ccc(cc3Cl)[C@@H](O[C@H]3C[C@](C)(N)[C@H](O)[C@H](C)O3)[C@@H]3NC(=O)[C@H](NC(=O)[C@@H]5NC(=O)[C@H](CC(N)=O)NC(=O)[C@H](NC(=O)[C@@H](CC(C)C)NC)[C@H](O)c5ccc(c(Cl)c5)O4)c4ccc(O)c(c4)-c4c(O)cc(O)cc4[C@H](C(=O)O)NC3=O)O[C@H](CO)[C@@H](O)[C@@H]2O)O[C@@H](C)[C@H]1O	0.39

Continue with the molecule presented below.
Q: Using the record for "CCCCCCN[C@@]1(C)C[C@H](O[C@H]2[C@H](Oc3c4cc5cc3Oc3ccc(cc3Cl)[C@@H](O[C@H]3C[C@](C)(N)[C@H](O)[C@H](C)O3)[C@@H]3NC(=O)[C@H](NC(=O)[C@@H]5NC(=O)[C@H](CC(N)=O)NC(=O)[C@H](NC(=O)[C@@H](CC(C)C)NC)[C@H](O)c5ccc(c(Cl)c5)O4)c4ccc(O)c(c4)-c4c(O)cc(O)cc4[C@H](C(=O)O)NC3=O)O[C@H](CO)[C@@H](O)[C@@H]2O)O[C@@H](C)[C@H]1O" , report its MIC.
Ans: 0.78

====

system: Enterococcus faecalis; test: microbe, parasite or virus in culture; type: functional; conditions: ATCC 29212
Description: Antibacterial activity against vancomycin-sensitive Enterococcus faecalis ATCC 29212 by CLSI agar microdilution method
Listed compounds paired with reported MIC
The response must be a number in µg/mL with no trailing unit.

compound_structure_string	tested_system	reported_endpoint	units_of_measure	value_reported
CN[C@H](CC(C)C)C(=O)N[C@H]1C(=O)N[C@@H](CC(N)=O)C(=O)N[C@H]2C(=O)N[C@H]3C(=O)N[C@H](C(=O)N[C@@H](C(=O)O)c4cc(O)cc(O)c4-c4cc3ccc4O)[C@H](O[C@H]3C[C@](C)(N)[C@H](O)[C@H](C)O3)c3ccc(c(Cl)c3)Oc3cc2cc(c3O[C@@H]2O[C@H](CO)[C@@H](O)[C@H](O)[C@H]2O[C@H]2C[C@](C)(NCc3ccc(OC)cc3)[C@H](O)[C@H](C)O2)Oc2ccc(cc2Cl)[C@H]1O	Enterococcus faecalis	MIC	µg/mL	0.5
CCCCN[C@@]1(C)C[C@H](O[C@H]2[C@H](Oc3c4cc5cc3Oc3ccc(cc3Cl)[C@@H](O[C@H]3C[C@](C)(N)[C@H](O)[C@H](C)O3)[C@@H]3NC(=O)[C@H](NC(=O)[C@@H]5NC(=O)[C@H](CC(N)=O)NC(=O)[C@H](NC(=O)[C@@H](CC(C)C)NC)[C@H](O)c5ccc(c(Cl)c5)O4)c4ccc(O)c(c4)-c4c(O)cc(O)cc4[C@H](C(=O)O)NC3=O)O[C@H](CO)[C@@H](O)[C@@H]2O)O[C@@H](C)[C@H]1O	Enterococcus faecalis	MIC	µg/mL	0.5
CN[C@H](CC(C)C)C(=O)N[C@H]1C(=O)N[C@@H](CC(N)=O)C(=O)N[C@H]2C(=O)N[C@H]3C(=O)N[C@H](C(=O)N[C@@H](C(=O)O)c4cc(O)cc(O)c4-c4cc3ccc4O)[C@H](O[C@H]3C[C@](C)(N)[C@H](O)[C@H](C)O3)c3ccc(c(Cl)c3)Oc3cc2cc(c3O[C@@H]2O[C@H](CO)[C@@H](O)[C@H](O)[C@H]2O[C@H]2C[C@](C)(N)[C@H](O)[C@H](C)O2)Oc2ccc(cc2Cl)[C@H]1O	Enterococcus faecalis	MIC	µg/mL	0.25
CN[C@H](CC(C)C)C(=O)N[C@H]1C(=O)N[C@@H](CC(N)=O)C(=O)N[C@H]2C(=O)N[C@H]3C(=O)N[C@H](C(=O)N[C@@H](C(=O)O)c4cc(O)cc(O)c4-c4cc3ccc4O)[C@H](O[C@H]3C[C@](C)(N)[C@H](O)[C@H](C)O3)c3ccc(c(Cl)c3)Oc3cc2cc(c3O[C@@H]2O[C@H](CO)[C@@H](O)[C@H](O)[C@H]2O[C@H]2C[C@](C)(NCc3cccc(Br)c3)[C@H](O)[C@H](C)O2)Oc2ccc(cc2Cl)[C@H]1O	Enterococcus faecalis	MIC	µg/mL	0.25

Pending compound:
Q: Which MIC is reported for this compound? "CN[C@H](CC(C)C)C(=O)N[C@H]1C(=O)N[C@@H](CC(N)=O)C(=O)N[C@H]2C(=O)N[C@H]3C(=O)N[C@H](C(=O)N[C@@H](C(=O)O)c4cc(O)cc(O)c4-c4cc3ccc4O)[C@H](O[C@H]3C[C@](C)(N)[C@H](O)[C@H](C)O3)c3ccc(c(Cl)c3)Oc3cc2cc(c3O[C@@H]2O[C@H](CO)[C@@H](O)[C@H](O)[C@H]2O[C@H]2C[C@](C)(NCc3ccc(C(C)C)cc3)[C@H](O)[C@H](C)O2)Oc2ccc(cc2Cl)[C@H]1O"
Ans: 0.5

====

tested on: Streptococcus pneumoniae; assay: Antibacterial activity against Streptococcus pneumoniae 31002 by CLSI agar microdilution method; assay type: functional
reported_endpoint: MIC (µg/mL)
Just the number in µg/mL, nothing appended.

compound_structure_string	units_of_measure	MIC
CN[C@H](CC(C)C)C(=O)N[C@H]1C(=O)N[C@@H](CC(N)=O)C(=O)N[C@H]2C(=O)N[C@H]3C(=O)N[C@H](C(=O)N[C@@H](C(=O)O)c4cc(O)cc(O)c4-c4cc3ccc4O)[C@H](O[C@H]3C[C@](C)(N)[C@H](O)[C@H](C)O3)c3ccc(c(Cl)c3)Oc3cc2cc(c3O[C@@H]2O[C@H](CO)[C@@H](O)[C@H](O)[C@H]2O[C@H]2C[C@](C)(NCc3ccc(Sc4ccccc4)cc3)[C@H](O)[C@H](C)O2)Oc2ccc(cc2Cl)[C@H]1O	µg/mL	3.13

// next entry
Q: Any idea what its MIC is? The molecule is "CCCCCCCCOc1ccc(CN[C@@]2(C)C[C@H](O[C@H]3[C@H](Oc4c5cc6cc4Oc4ccc(cc4Cl)[C@@H](O[C@H]4C[C@](C)(N)[C@H](O)[C@H](C)O4)[C@@H]4NC(=O)[C@H](NC(=O)[C@@H]6NC(=O)[C@H](CC(N)=O)NC(=O)[C@H](NC(=O)[C@@H](CC(C)C)NC)[C@H](O)c6ccc(c(Cl)c6)O5)c5ccc(O)c(c5)-c5c(O)cc(O)cc5[C@H](C(=O)O)NC4=O)O[C@H](CO)[C@@H](O)[C@@H]3O)O[C@@H](C)[C@H]2O)cc1"
Ans: 6.25

====

system: Streptococcus pneumoniae; test: Antibacterial activity against penicillin-resistant Streptococcus pneumoniae MSPN 0003 by CLSI broth microdilution method; type: functional
Each record here notes measured MIC.

Answered examples (2):
compound_structure_string	MIC
CN[C@H](CC(C)C)C(=O)N[C@H]1C(=O)N[C@@H](CC(N)=O)C(=O)N[C@H]2C(=O)N[C@H]3C(=O)N[C@H](C(=O)N[C@@H](C(=O)O)c4cc(O)cc(O)c4-c4cc3ccc4O)[C@H](O[C@H]3C[C@](C)(N)[C@H](O)[C@H](C)O3)c3ccc(c(Cl)c3)Oc3cc2cc(c3O[C@@H]2O[C@H](CO)[C@@H](O)[C@H](O)[C@H]2O[C@H]2C[C@](C)(NCc3ccc(C(C)C)cc3)[C@H](O)[C@H](C)O2)Oc2ccc(cc2Cl)[C@H]1O	≤ 0.031 µg/mL
CN[C@H](CC(C)C)C(=O)N[C@H]1C(=O)N[C@@H](CC(N)=O)C(=O)N[C@H]2C(=O)N[C@H]3C(=O)N[C@H](C(=O)N[C@@H](C(=O)O)c4cc(O)cc(O)c4-c4cc3ccc4O)[C@H](O[C@H]3C[C@](C)(N)[C@H](O)[C@H](C)O3)c3ccc(c(Cl)c3)Oc3cc2cc(c3O[C@@H]2O[C@H](CO)[C@@H](O)[C@H](O)[C@H]2O[C@H]2C[C@](C)(NCc3cccc(Br)c3)[C@H](O)[C@H](C)O2)Oc2ccc(cc2Cl)[C@H]1O	≤ 0.031 µg/mL

Consider now this further molecule.
Q: MIC of "CN[C@H](CC(C)C)C(=O)N[C@H]1C(=O)N[C@@H](CC(N)=O)C(=O)N[C@H]2C(=O)N[C@H]3C(=O)N[C@H](C(=O)N[C@@H](C(=O)O)c4cc(O)cc(O)c4-c4cc3ccc4O)[C@H](O[C@H]3C[C@](C)(N)[C@H](O)[C@H](C)O3)c3ccc(c(Cl)c3)Oc3cc2cc(c3O[C@@H]2O[C@H](CO)[C@@H](O)[C@H](O)[C@H]2O[C@H]2C[C@](C)(NCc3ccc(Br)cc3)[C@H](O)[C@H](C)O2)Oc2ccc(cc2Cl)[C@H]1O" on Streptococcus pneumoniae?
Ans: ≤ 0.031 µg/mL
